Target: T1, human NGF (human, UniProt P01138 122-241)
T1 construct: also called human Nerve Growth Factor; hN
T1 chain: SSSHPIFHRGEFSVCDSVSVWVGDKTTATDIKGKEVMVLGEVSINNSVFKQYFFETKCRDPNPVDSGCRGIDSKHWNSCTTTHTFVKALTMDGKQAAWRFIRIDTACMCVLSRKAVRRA
Assay: SPR (Biacore), human NGF amine-coupled on chip, antibody injected
pKd: −log10 of the molar value.
experimental-endpoint: pKd

[[record]]
binder = "humanized mAb can48L2VH_HM855336.1 / can48L2VL_Z22192.1 (antibody, V domains shown) VH: EVQLVESGGGLVQPGGSLRLSCAASGFTFSTYGMNWVRQAPGKGLEWVSYISSGGSSIYYADSVKGRFTISRDNAKNSLYLQMNSLRAEDTAVYYCAGSRYTYAYGGGYEFHFWGQGTLVTVSS VL: QSVVTQPPSVSGAPGQRVTISCTGSTMDIDIFGVSWYQQLPGTAPKLLIYGDGDRPSGVPDRFSGSKSGASASLAITGLQAEDEADYHCQSGDSTLGALAIFGGGTHVTVL"
value = 8.90

[[record]]
binder = "humanized mAb can48L2VH_HM855323.1 / can48L2VL_Z22192.1 (antibody, V domains shown) VH: EVQLVESGGGLVKPGGSLRLSCAASGFTFSTYGINWVRQAPGKGLEWVSYISSGGSSTYYADSVKGRFTISRDNAKNSLYLQMNSLRAEDTAVYYCAGSRYTYAYGGGYEFHFWGQGTLVTVSS VL: QSVVTQPPSVSGAPGQRVTISCTGSTMDIDIFGVSWYQQLPGTAPKLLIYGDGDRPSGVPDRFSGSKSGASASLAITGLQAEDEADYHCQSGDSTLGALAIFGGGTHVTVL"
value = 8.81

[[record]]
binder = "humanized mAb can48L2VH_HM855336.1 / can48L2VL_Z22192.1_P14L (antibody, V domains shown) VH: EVQLVESGGGLVQPGGSLRLSCAASGFTFSTYGMNWVRQAPGKGLEWVSYISSGGSSIYYADSVKGRFTISRDNAKNSLYLQMNSLRAEDTAVYYCAGSRYTYAYGGGYEFHFWGQGTLVTVSS VL: QSVVTQPPSVSGALGQRVTISCTGSTMDIDIFGVSWYQQLPGTAPKLLIYGDGDRPSGVPDRFSGSKSGASASLAITGLQAEDEADYHCQSGDSTLGALAIFGGGTHVTVL"
value = 8.83

